Documented β/δ (ratio of IC50 values against PI3Kβ to PI3Kδ) across a set of compounds
Molecular target: PI3Kβ (Homo sapiens (Human), UniProt P42338)
Sequence (P42338 whole entry, species assumed): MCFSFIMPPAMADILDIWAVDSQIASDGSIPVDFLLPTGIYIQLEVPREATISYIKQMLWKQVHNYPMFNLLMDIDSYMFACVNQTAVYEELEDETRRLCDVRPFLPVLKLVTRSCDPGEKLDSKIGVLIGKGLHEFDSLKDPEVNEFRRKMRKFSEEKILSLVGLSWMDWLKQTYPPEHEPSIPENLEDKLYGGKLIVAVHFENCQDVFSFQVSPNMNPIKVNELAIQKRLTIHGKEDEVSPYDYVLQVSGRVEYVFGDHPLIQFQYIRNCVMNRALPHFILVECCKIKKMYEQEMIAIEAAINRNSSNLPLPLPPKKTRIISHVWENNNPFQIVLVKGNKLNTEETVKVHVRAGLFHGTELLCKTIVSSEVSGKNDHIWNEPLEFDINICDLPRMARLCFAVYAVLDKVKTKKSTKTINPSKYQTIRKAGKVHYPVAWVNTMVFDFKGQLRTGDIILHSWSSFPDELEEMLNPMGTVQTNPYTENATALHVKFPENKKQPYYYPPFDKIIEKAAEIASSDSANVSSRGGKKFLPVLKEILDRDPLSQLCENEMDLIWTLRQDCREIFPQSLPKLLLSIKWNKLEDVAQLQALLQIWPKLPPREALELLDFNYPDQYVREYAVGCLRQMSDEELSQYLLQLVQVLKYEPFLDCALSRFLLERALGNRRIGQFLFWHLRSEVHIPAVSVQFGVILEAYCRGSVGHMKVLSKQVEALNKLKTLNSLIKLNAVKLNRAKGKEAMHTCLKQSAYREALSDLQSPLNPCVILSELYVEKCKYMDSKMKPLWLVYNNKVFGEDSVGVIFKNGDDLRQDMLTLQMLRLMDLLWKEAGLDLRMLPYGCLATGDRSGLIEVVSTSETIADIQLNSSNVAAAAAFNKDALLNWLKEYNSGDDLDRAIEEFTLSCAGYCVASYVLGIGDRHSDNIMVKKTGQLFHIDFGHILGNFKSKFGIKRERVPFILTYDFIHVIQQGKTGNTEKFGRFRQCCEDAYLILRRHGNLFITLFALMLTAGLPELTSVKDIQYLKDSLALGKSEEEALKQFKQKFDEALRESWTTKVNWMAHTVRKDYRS
Sequence (P27986 whole entry partner, species assumed): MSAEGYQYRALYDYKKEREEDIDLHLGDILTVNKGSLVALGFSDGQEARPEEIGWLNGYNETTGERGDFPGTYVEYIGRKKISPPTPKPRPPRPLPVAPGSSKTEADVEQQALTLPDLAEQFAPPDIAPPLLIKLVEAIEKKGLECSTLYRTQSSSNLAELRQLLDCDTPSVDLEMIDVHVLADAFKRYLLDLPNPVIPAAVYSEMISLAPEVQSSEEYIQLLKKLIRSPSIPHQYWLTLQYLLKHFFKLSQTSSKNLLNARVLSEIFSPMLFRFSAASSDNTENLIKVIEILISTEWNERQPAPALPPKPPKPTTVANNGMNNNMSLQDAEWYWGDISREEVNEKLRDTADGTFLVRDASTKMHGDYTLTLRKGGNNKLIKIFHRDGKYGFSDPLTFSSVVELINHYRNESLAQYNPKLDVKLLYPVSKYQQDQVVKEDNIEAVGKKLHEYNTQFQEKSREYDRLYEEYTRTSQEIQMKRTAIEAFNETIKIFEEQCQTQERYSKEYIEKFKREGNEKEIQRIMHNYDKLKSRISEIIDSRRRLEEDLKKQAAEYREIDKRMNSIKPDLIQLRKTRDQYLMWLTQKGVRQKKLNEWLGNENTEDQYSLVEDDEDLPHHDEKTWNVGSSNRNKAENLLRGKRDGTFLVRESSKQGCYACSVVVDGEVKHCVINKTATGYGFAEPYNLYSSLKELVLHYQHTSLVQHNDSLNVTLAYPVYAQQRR
Assay: PI3Kβ enzymatic inhibitory activity IC50 assay
Assay type: biochemical
Conditions: selectivity ratio
property: β/δ (ratio of IC50 values against PI3Kβ to PI3Kδ)

1. COc1ncc(-c2nc(N3CCOCC3)nc3c(CN4CCC(N5CCCCC5=O)CC4)cc(F)cc23)cc1NS(C)(=O)=O : 40
2. COc1ncc(-c2nc(N3CCOCC3)nc3c(OC4CCC(N5CCCCC5)CC4)cc(F)cc23)cc1NS(C)(=O)=O (stereo not drawn) [Compound 34] : 360
3. COc1ncc(-c2nc(N3CCOCC3)nc3c(OC4CCC(C(C)(C)O)CC4)cc(F)cc23)cc1NS(C)(=O)=O (stereo not drawn) : >129

Every entry's value here was drawn from patent US9656996B2.
